Ref: PubChem BioAssay (NCI)

- System: OVCAR-3 ovarian
- assay details: NCI-60 one-dose screen, 48 h
- experimental setup: 10 µM
The panel holds about 83,000 compounds, 20% with a hit somewhere; the sample as a whole holds those more often. The source made the active and inactive calls. How the source made its calls: active means growth percent below 10; inactive means the rest.
Your reply should match one of these outcome classes. active, inactive

{"compound": "Clc1cc(Cl)c(Cl)nn1", "cat": "inactive"}
{"compound": "CN1CCN(CCCN2c3ccccc3Sc3ccc(C(F)(F)F)cc32)CC1", "cat": "inactive"}
{"compound": "Cc1cc(O)c(C(C)C)cc1Cl", "cat": "inactive"}

Q. Recorded call for CCCCCCCCCCCC[N+](C)(C)Cc1ccccc1 ?
A. active

Q. Recorded call for Oc1ccc(N=Nc2ccccn2)c(O)c1 ?
A. inactive

Q. Recorded call for O=C1C=C(O)c2ccccc2C1=O.[Ag] ?
A. inactive

---

- Tested on: SF-539 CNS
- assay details: NCI-60 one-dose screen, 48 h (100 = growth as untreated, 0 = no growth, -100 = all killed)
- experimental setup: 10 µM
About 83,000 compounds went through this panel and 20% of them were active in at least one assay; those are over-represented in the sample as a whole.
value type: growth (%)
Quick reminder: number only, in %, skip the unit.

{"molecule": "O=C(O)COc1ccc(OCC(=O)O)cc1", "reading unit": "%", "growth": -0.842}
{"molecule": "CO[C@H](C(=O)[C@@H](O)[C@@H](C)O)[C@@H]1Cc2cc3cc(OC4CC(OC5CC(O)C(O)C(C)O5)C(O)C(C)O4)c(C)c(O)c3c(O)c2C(=O)[C@H]1OC1CC(OC2CC(OC3CC(C)(O)C(O)C(C)O3)C(O)C(C)O2)C(O)C(C)O1 (some centres undefined)", "reading unit": "%", "growth": -20.2}
{"molecule": "COc1ccc(CC(=O)c2ccc(O)cc2O)cc1", "reading unit": "%", "growth": 99.3}
{"molecule": "OC(CN1CCCC2CCCCC21)c1cc2ccccc2c2ccccc12 (centres undefined)", "reading unit": "%", "growth": 27.8}
{"molecule": "O=C1NC(=O)c2cc([N+](=O)[O-])ccc21", "reading unit": "%", "growth": 101}
{"molecule": "O=C(/C=C/c1cccnc1)c1ccccc1", "reading unit": "%", "growth": 96.2}

Q. Look up growth: CC(=O)OCC(OC(C)=O)C(OC(C)=O)C(OC(C)=O)C(OC(C)=O)C(/C=N/Nc1ccccc1)=N/Nc1ccccc1 (centres undefined)
A. 89.9

Q. Look up growth: CC1=CC(C)=Nc2ccc(Cl)cc2N1
A. 100

Q. Look up growth: Clc1cc(Cl)c(Cl)nn1
A. 100

---

- System: MCF7 breast
- assay details: NCI-60 one-dose screen, 48 h
- experimental setup: 10 µM
- Procedure: Growth inhibition of the MCF7 human tumor cell line is measured as a screen for anti-cancer activity. Cells are grown in 96 well plates and exposed to the test compound for 48 hours. Compounds are tested at a single concentration, which is 10^-5 M for most compounds. The reported endpoint is percent growth (GI% or GIPRCNT), where numbers from 0 - 100% represent growth inhibition, and numbers from -100% - 0 represent cell death. For example, a value of 40 represents 60% growth inhibition. […]
The panel holds about 83,000 compounds, 20% with a hit somewhere; the sample as a whole holds those more often. Activity calls are given as the source filed them. How the source made its calls: active means growth percent below 10; inactive means the rest.
Your reply should match one of these outcome classes. Y (active), N (inactive)

// below: answered compounds
{"compound": "COC1OCC(O)C(O)C1O (centres undefined)", "assay target": "MCF7 breast", "cat": "N"}
{"compound": "CCCCCCCCCCCCCCCCCCOCC(COP(=O)([O-])OCC[N+](C)(C)C)OC (centres undefined)", "assay target": "MCF7 breast", "cat": "N"}
{"compound": "OC(CN1CCCC2CCCCC21)c1cc2ccccc2c2ccccc12 (centres undefined)", "assay target": "MCF7 breast", "cat": "Y"}

# evaluate next
Q. Recorded call for Clc1cc(Cl)c(Cl)nn1 ?
A. N
